FYI, the data here is from ChEMBL document CHEMBL1201862.

Test system: SK-MEL-2
Assay: NCI tumour cell line growth inhibition, 48 h
Calls of active or inactive are those of the source. Cut-off read from the data, not from the text of the source: active = GI50 up to about 1.1 µM and inactive = higher.
Would you mind telling me the reported GI50 of each entry?

// solved cases for GI50 follow
- COMPOUND: "Cc1cccc2c(=O)c3cccc([C@@H](C)C(=O)O)c3oc12"
  TARGET_UNDER_TEST: "SK-MEL-2"
  REPORTED_RESULT: "80.7 µM (inactive)"
- COMPOUND: "CC1C/C(=C\\c2ccc(OC(=O)C(C)(C)C)cc2)C(=O)/C(=C/c2ccc(OC(=O)C(C)(C)C)cc2)C1 (centres undefined)"
  TARGET_UNDER_TEST: "SK-MEL-2"
  REPORTED_RESULT: "61 µM (inactive)"
- COMPOUND: "O=C(O[C@@H](/C=C/c1ccccc1)P1(=O)N(Cc2ccccc2)[C@H]2CCCC[C@@H]2N1Cc1ccccc1)c1ccccc1"
  TARGET_UNDER_TEST: "SK-MEL-2"
  REPORTED_RESULT: "1.85 µM (inactive)"
- COMPOUND: "COc1ccccc1NC(=O)C(=O)C1C(=O)Nc2ccccc2[S+]1[O-] (centres undefined)"
  TARGET_UNDER_TEST: "SK-MEL-2"
  REPORTED_RESULT: "> 100 µM (inactive)"
- COMPOUND: "Nc1[nH]cnc2ncnc1-2"
  TARGET_UNDER_TEST: "SK-MEL-2"
  REPORTED_RESULT: "> 250 µM (inactive)"
- COMPOUND: "CC1=NN(C(=O)c2ccc(Cl)cc2)C(=O)/C1=C/c1cccc(O)c1"
  TARGET_UNDER_TEST: "SK-MEL-2"
  REPORTED_RESULT: "> 100 µM (inactive)"

Provide each entry's GI50 from the list below.
1. COc1cc(CC2C(=O)OCC2[C@@H](OC(C)=O)c2ccc3c(c2)OCO3)c(Br)c(OC)c1OC (some centres undefined)
2. CCOC(=O)/C(C(=O)c1ccc([N+](=O)[O-])cc1)=C(\NS(=O)(=O)c1cc(C)c(Cl)cc1[S-])[n+]1ccc(N(C)C)cc1

[A]
1. 61.4 µM (inactive)
2. 3.83 µM (inactive)

So, CCNC(=S)NNC(=O)C12CC3CC(CC(C3)C1)C2 ? Its GI50 was > 100 µM (inactive)

* * *

Tested on: NCI-H460
Experiment: NCI tumour cell line growth inhibition, 48 h
Calls of active or inactive are those of the source. Cut-off read from the data, not from the text of the source: active = GI50 up to about 1.1 µM and inactive = higher.
A correct response names exactly one class from T (active), F (inactive)

Solved entries:
- COMPOUND: "N#CC(c1cc2c(cc1Br)OCO2)N1CCOCC1 (stereo unspecified)"
  CAT: "F"
- COMPOUND: "CC(C)(C)OC(=O)C(C#N)C(=O)c1ccc(C(=O)O)[nH]1 (stereo unspecified)"
  CAT: "F"
- COMPOUND: "COC(=O)CC[C@@H](NC(=O)C(C)NC(=O)COC1C(O)C(COC(=O)CCCCCCCCCCNC(=O)c2ccc([N+](=O)[O-])c3[nH]c4cc(Br)ccc4c(=O)c23)OC(OCc2ccccc2)C1NC(C)=O)C(N)=O (stereo partly specified)"
  CAT: "F"
- COMPOUND: "CC1(C)OC(C[C@]2(C#N)C[C@H](CCl)OC(C)(C)O2)C[C@@H](C[C@]2(C#N)C[C@H](CCl)OC(C)(C)O2)O1 (stereo partly specified)"
  CAT: "F"
- COMPOUND: "COc1cccc(C(=O)Nc2c3ccccc3nc3ccccc23)c1OC"
  CAT: "F"

[Q] Name the outcome recorded for CC(=O)[C@@H]1[C@@H](OC(=O)CCC(C)COC2OC(CO)C(O)C(O)C2O)C[C@H]2[C@@H]3CC=C4C[C@@H](OC5OC(CO)C(OC6OC(C)C(O)C(O)C6O)C(O)C5OC5OC(C)C(O)C(O)C5O)CC[C@]4(C)[C@H]3CC[C@]12C (stereo partly specified) in the assay.
[A] F

[Q] Name the outcome recorded for COC(=O)C#Cc1cccc(OC)c1OC in the assay.
[A] F

[Q] Name the outcome recorded for C=C1C(=O)OC2C=C(CCC(C)=O)C(C)C(OC(C)=O)CC12 (stereo unspecified) in the assay.
[A] F

[Q] Name the outcome recorded for O=C(NC(=O)c1ccccc1[N+](=O)[O-])Nc1ccc(Oc2ncc(Cl)cn2)c([N+](=O)[O-])c1 in the assay.
[A] T

[Q] Name the outcome recorded for CC(=O)O[C@H]1C(=O)[C@@]2(C)[C@H]([C@H](OC(=O)c3ccccc3)[C@]3(O)C[C@H](OC(=O)[C@H](O)[C@@H](NC(=O)C(C)(O)C(C)O)c4ccccc4)C(C)=C1C3(C)C)[C@]1(OC(C)=O)CO[C@@H]1C[C@@H]2O (stereo partly specified) in the assay.
[A] T

[Q] Name the outcome recorded for CCn1c(=O)c2nc(SC)sc2n(-c2ccc(C)cc2)c1=O in the assay.
[A] F

[Q] Name the outcome recorded for COC(=O)C1(C)C=CC(=O)C2(C)C1C(O)C1OC3CC(c4ccoc4)C(C)=C3C1(C)C2CC(=O)O (stereo unspecified) in the assay.
[A] F

[Q] Name the outcome recorded for COc1ccc(-c2oc3cc(O)c(OC)c(O)c3c(=O)c2O)cc1 in the assay.
[A] F

[Q] Name the outcome recorded for Cc1ccc2cccc(-c3cccc4ccccc34)c2n1 in the assay.
[A] F

[Q] Name the outcome recorded for O=C(Oc1ccccc1)c1cc2cc(CCl)ccc2oc1=O in the assay.
[A] F

[Q] Name the outcome recorded for O=C1C(=Cc2cccs2)C(=O)N(CCc2ccccc2)S(=O)(=O)N1CCc1ccccc1 in the assay.
[A] F

* * *

System: CCRF-CEM
Assay: NCI tumour cell line growth inhibition, 48 h
Active and inactive are the calls of the source. No stated cut-off is given here; in the data, active = GI50 up to about 1.1 µM and inactive = higher.
A correct response names exactly one class from yes for active, no for inactive

Solved entries:
- COMPOUND: "N#Cc1cccc(-n2[nH]c(=O)ccc2=O)c1"
  TARGET_UNDER_TEST: "CCRF-CEM"
  CAT: "no"
- COMPOUND: "CC(C)(C)N1C(=O)[N-]/[N+](=C(/C(c2ccccc2)=[N+]2/[N-]C(=O)N(C(C)(C)C)C2=O)c2ccccc2)C1=O"
  TARGET_UNDER_TEST: "CCRF-CEM"
  CAT: "no"
- COMPOUND: "CCOC(=O)C(C(=O)OCC)C(=O)c1ccccc1C(=O)c1ccccc1"
  TARGET_UNDER_TEST: "CCRF-CEM"
  CAT: "no"
- COMPOUND: "CCN(CC)CCNc1ccc2ncn3c4c(OC)ccc(OC)c4c(=O)c1c23"
  TARGET_UNDER_TEST: "CCRF-CEM"
  CAT: "no"
- COMPOUND: "CC(NC(=O)CNP(=O)(c1ccccc1)c1ccccc1)C(=O)NC(Cc1ccccc1)C(=O)OCc1ccccc1 (configuration not stated)"
  TARGET_UNDER_TEST: "CCRF-CEM"
  CAT: "no"
- COMPOUND: "COc1cc(Br)c(OC)c2c(OC)cc(C)cc12"
  TARGET_UNDER_TEST: "CCRF-CEM"
  CAT: "no"
- COMPOUND: "Cc1c(-c2ccccc2)c(C#N)c2nnn(C3CCCCC3)c(=O)n12"
  TARGET_UNDER_TEST: "CCRF-CEM"
  CAT: "no"
- COMPOUND: "C=CCC1(CN(C)C)CC/C(=C\\c2ccc(Cl)cc2)C1=O (configuration not stated)"
  TARGET_UNDER_TEST: "CCRF-CEM"
  CAT: "no"

[Q] Name the outcome recorded for CC1(C)O[C@@H]2[C@@H](COC(=O)c3ccccc3)C[C@@H](C#N)[C@@H]2O1 in the assay.
[A] no

* * *

Test system: SW-620
Experiment: NCI tumour cell line growth inhibition, 48 h
Calls of active or inactive are those of the source. No stated cut-off is given here; in the data, active = GI50 up to about 1.1 µM and inactive = higher.
A correct response names exactly one class from active, inactive

Solved entries:
- MOLECULE: "c1ccc2c3c([nH]c2c1)[C@H]1C2CCCCN2CN1CC3 (stereo not given in full)"
  TARGET_UNDER_TEST: "SW-620"
  CAT: "inactive"
- MOLECULE: "CCOC(=O)C(C)(C)Oc1ccc2c(C)c(-c3ccc(Cl)cc3)c(=O)oc2c1"
  TARGET_UNDER_TEST: "SW-620"
  CAT: "inactive"
- MOLECULE: "OCCOCCO[P+]1(OCCOCCO)n2c3ccc2C(c2ccccc2)=C2C=CC(=N2)C(c2ccccc2)=c2ccc(n21)=C(c1ccccc1)C1=NC(=C3c2ccccc2)C=C1"
  TARGET_UNDER_TEST: "SW-620"
  CAT: "active"
- MOLECULE: "Nc1[nH]cnc2ncnc1-2 [ADENINE]"
  TARGET_UNDER_TEST: "SW-620"
  CAT: "inactive"
- MOLECULE: "C=C(OC1C(C)=C2C(C1OC(=O)CCCCCCC)C(C)(OC(C)=O)CC(OC(=O)CCC)C1(O)C2OC(=O)C1(C)O)/C(C)=C/C (stereo not given)"
  TARGET_UNDER_TEST: "SW-620"
  CAT: "active"

[Q] Name the outcome recorded for COc1cccc(N2C(=O)CSC2c2cc(OC)c(OC)c(OC)c2)c1 (stereo not given) in the assay.
[A] inactive
